# TGT: T1, recombinant human HGF (R&D Systems, Catalog No. 294-HGN-025) (human, UniProt P14210 32-728)
# T1 construct: Mature HGF is a disulfide-linked heterodimer of alpha and beta chain cut from one precursor; also called rhHGF (R&D Systems); rhHGF
# ASSAY_DETAILS: SPR (BIAcore T100), antibody captured on mouse anti-human immunoglobulin CM4 chip, HGF 1.88, 3.75 and 7.5 nM injected, 25 C
Listed here: items and their measured kon.
Respond numerically; units are M⁻¹ s⁻¹ and should not be typed.

Example entries and their recorded answers appear below.
- Kappa Hu2B8_Kv3-15.1 / Heavy Hu2B8_Hv1-f.1 (antibody, human IgG1, kappa, V domains shown, also called Hu2B8 Hv1-f.1 + IgG1 Constant heavy chain with Hu2B8 Kv3-15.1 + Kappa Constant light chain) VH: EVQLVQSGAEVKKPGATVKISCKVSGYTFTTYWMHWVQQAPGKGLEWMGEINPTNGHTNYNEKFQGRVTITADTSTDTAYMELSSLRSEDTAVYYCATNYVGSIFDYWGQGTLVTVSS VL: EIVMTQSPATLSVSPGERATLSCKASENVVSYVSWYQQKPGQAPRLLIYGASNRNTGIPARFSGSGSGTEFTLTISSLQSEDFAVYYCGQSYNYPYTFGQGTKLEIKR: 7.8e+06
- Kappa Chimeric 2B8 / Heavy Hu2B8_Hv5-a.1 (antibody, human IgG1, kappa, V domains shown, also called Hu2B8 Hv5-a.1 + IgG1 Constant heavy chain with Chimeric 2B8 Kappa light chain) VH: EVQLVQSGAEVKKPGESLRISCKGSGYSFTTYWMHWVRQMPGKGLEWMGEINPTNGHTNYNPSFQGHVTISADKSISTAYLQWSSLKASDTAMYYCARNYVGSIFDYWGQGTLVTVSS VL: NIVMTQSPKSMSMSVGERVTLSCKASENVVSYVSWYQQKPAQSPKLLIYGASNRNTGVPDRFTGSGSATDFTLTISSVRAEDLADYHCGQSYNYPYTFGGGTRLEIKR: 2.4e+06
- Kappa Hu2B8_Kv1-39.1 / Heavy Chimeric 2B8 (antibody, human IgG1, kappa, V domains shown, also called Chimeric 2B8 IgG1 heavy chain with Hu2B8 Kv1-39.1 + Kappa Constant light chain) VH: QVQLQQPGAELVKPGTSVKLSCKASGYTFTTYWMHWVNQRPGQGLEWIGEINPTNGHTNYNEKFKSKATLTVDKSSSTAYMQLSSLTSEDSAVYYCARNYVGSIFDYWGQGTTLTVSS VL: DIQMTQSPSSLSASVGDRVTITCKASENVVSYVSWYQQKPGKAPKLLIYGASNRNTGVPSRFSGSGSGTDFTLTISSLQPEDFATYYCGQSYNYPYTFGQGTKLEIKR: 2.8e+06
- Kappa Hu2B8_Kv1-39.1 / Heavy Hu2B8_Hv5-a.1 (antibody, human IgG1, kappa, V domains shown, also called Hu2B8 Hv5-a.1 + IgG1 Constant heavy chain with Hu2B8 Kv1-39.1 + Kappa Constant light chain) VH: EVQLVQSGAEVKKPGESLRISCKGSGYSFTTYWMHWVRQMPGKGLEWMGEINPTNGHTNYNPSFQGHVTISADKSISTAYLQWSSLKASDTAMYYCARNYVGSIFDYWGQGTLVTVSS VL: DIQMTQSPSSLSASVGDRVTITCKASENVVSYVSWYQQKPGKAPKLLIYGASNRNTGVPSRFSGSGSGTDFTLTISSLQPEDFATYYCGQSYNYPYTFGQGTKLEIKR: 2.6e+06

# input binder: Kappa Hu2B8_Kv1-39.1 / Heavy Hu2B8_Hv1-f.1 (antibody, human IgG1, kappa, V domains shown, also called Hu2B8 Hv1-f.1 + IgG1 Constant heavy chain with Hu2B8 Kv1-39.1 + Kappa Constant light chain) VH: EVQLVQSGAEVKKPGATVKISCKVSGYTFTTYWMHWVQQAPGKGLEWMGEINPTNGHTNYNEKFQGRVTITADTSTDTAYMELSSLRSEDTAVYYCATNYVGSIFDYWGQGTLVTVSS VL: DIQMTQSPSSLSASVGDRVTITCKASENVVSYVSWYQQKPGKAPKLLIYGASNRNTGVPSRFSGSGSGTDFTLTISSLQPEDFATYYCGQSYNYPYTFGQGTKLEIKR ; wanted: its kon
7.1e+06

All values here come from patent US20140178935A1.
